Source of measurements: patent US20230357320A1

Below: a set of entries, each annotated with reported pEC50.
molecular target: T1, Estrogen receptor β ligand-binding domain (ERβ LBD), residues 261 to 500, with N-terminal His6-yBBr-TEV tag (UniProt Q92731 261-500); test: competition fluorescence polarization; 200 nM ERβ LBD, 10 nM FITC-ERL4 probe, 1 µM estradiol
T1 construct: range 261-500; Expressed in E. coli BL21(DE3) pLysS from pET28a+, purified by Ni-NTA and SEC; Assays were run in the presence of estradiol; also called ER LBD; not shown: N-terminal His6-yBBr-TEV tag
T1 sequence (Q92731 261-500): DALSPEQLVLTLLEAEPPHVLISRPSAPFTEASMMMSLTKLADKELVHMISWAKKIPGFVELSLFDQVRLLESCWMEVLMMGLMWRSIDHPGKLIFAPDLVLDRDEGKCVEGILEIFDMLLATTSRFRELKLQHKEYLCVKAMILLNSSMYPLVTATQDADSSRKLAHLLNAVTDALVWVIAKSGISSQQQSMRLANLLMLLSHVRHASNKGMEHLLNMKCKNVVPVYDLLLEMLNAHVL
pEC50: −log10 of the molar value. Positions of bridges follow the written chain, without caps; N, C: chain ends. Non-standard residues stand in square brackets, D forms with d. Primed or numbered codes have the meaning given here. *: point of attachment. PL3 = (R)-N-acetyl-2-(2'-propenyl)proline (alpha-allyl proline), stapling residue, C=CC[C@@]1(C(=O)*)CCCN1C(C)=O; PL3″ = (R)-2-(2'-propenyl)proline (alpha-allyl proline), N-acetylated, C=CC[C@@]1(C(=O)*)CCCN1C(C)=O; S5 = C=CCCC[C@](C)(N)C(=O)O

BINDER: Ac-[PL3]LL[S5]YLLQ-NHMe (staple 1-4; also: staple isomer 2, cis olefin, Second-generation ProLock stapled peptide; X marks non-standard residues) [PLL5-12 (Ac-PL3-Leu-Leu-S5-Tyr-Leu-Leu-Gln-NHMe)]
pEC50: 5.70
--
BINDER: Ac-[PL3]LL[S5]YLLDD-NHMe (staple 1-4; also: staple isomer 2, cis olefin, Second-generation ProLock stapled peptide; X marks non-standard residues) [PLL5-2 (Ac-PL3-Leu-Leu-S5-Tyr-Leu-Leu-Asp-Asp-NHMe)]
pEC50: 5.92
--
BINDER: Ac-[PL3″]LL[S5]YLLDY-NHMe (staple 1-4; also: staple isomer 2, cis olefin, Second-generation ProLock stapled peptide; X marks non-standard residues) [PLL5-1 (Ac-PL3-Leu-Leu-S5-Tyr-Leu-Leu-Asp-Tyr-NHMe)]
pEC50: 5.41
--
BINDER: Ac-[PL3]LL[S5]YLLQY-NHMe (staple 1-4; also: staple isomer 2, cis olefin, Second-generation ProLock stapled peptide; X marks non-standard residues) [PLL5-3 (Ac-PL3-Leu-Leu-S5-Tyr-Leu-Leu-Gln-Tyr-NHMe)]
pEC50: 6.30
